This collection of values is drawn from PubChem BioAssay.

- TEST: HUVEC growth inhibition – cell-based, human, primary screen (AID 575);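 further: 100% = median of untreated cell wells with 0.1% DMSO on each plate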
- CONDITION_DETAILS: HUVEC proliferation, CellTiter-Glo luminescence, 72 h; at 10 µM; stronger effect = lower value
Active and inactive are the calls of the source.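 How the source made its calls: active means viability at or below 30% in both replicate assays; inconclusive means viability at or below 30% in just one of the two assays; inactive means the rest.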
Measured viability accompanies every entry in the list below.

Known results for compounds:
COc1cc(C(=O)Nc2ccc(-n3cnnn3)c(C)c2)cc(OC)c1OC | 99.8% (inactive)
CCOc1ccc(-n2cc(C(=O)Nc3cccc(C)n3)c3cc(OC)c(OC)cc3c2=O)cc1 | 71.8% (inactive)
O=C(CSc1nc(-c2ccccc2)cs1)NC(=O)NCc1ccco1 | 58.4% (inactive)
COc1ccccc1NC(=O)c1ccc(COc2ccccc2OC)o1 | 87.6% (inactive)
Cc1cc2c(cc1C)-c1nnnn1C(C)(C)C2 | 101% (inactive)
CCN(CC)C(=O)CSc1nnc([C@@H](N)Cc2ccccc2)o1 | 98.5% (inactive)
O=C1CCc2nc3sc4c(c3c(=O)n2N1)CCCC4 | 85.9% (inactive)
Cc1oc(-c2ccccc2Cl)nc1CSCC(=O)N1CCCC1 | 79.4% (inactive)
COc1ccc2[nH]c(=O)c(CN(C(=O)c3cccnc3)c3ccccc3OC)cc2c1 | 90.8% (inactive)

Here is the next item to consider.
Data request: # query: viability of entry N#Cc1nc(-c2ccco2)oc1N1CCN(c2cccc(Cl)c2)CC1
Data returned: 90.1% (inactive)

----------
- TEST: reversal of MRP1-mediated doxorubicin resistance, pilot screen, H69AR cells, doxorubicin co-treatment (AID 601)
- CONDITION_DETAILS: H69AR cells + 2 uM doxorubicin, CellTiter-Glo, 72 h; measured here: viability with 2 uM doxorubicin; at 10 µM; stronger effect = lower value
Measured viability accompanies every entry in the list below.
Only the number, expressed in %, is required.

Known results for compounds:
O=C(O)CCCNS(=O)(=O)c1ccc(NCc2ccccc2)c(C(=O)O)c1 | 91.4
O=C(Nc1cc(Cl)ccc1Cl)c1noc2c1CCCC2 | 86.9
COc1ccc(C(=O)c2ccccc2)c(O)c1 | 92
COc1ccc(C2=Nn3c(nnc3-c3cccnc3)SC2)cc1 | 81.2

Data request: # query: viability of entry CC(C)C(c1nnnn1CC1CCCO1)N1CCN(Cc2ccc3c(c2)OCO3)CC1 (stereo unspecified)
Data returned: 90.3

Data request: Same for Cc1c(C(=O)NCc2ccccc2)oc2c1C(=O)CCC2
Data returned: 83.6

----------
- TEST: SK-BR-3 cell growth inhibitors, pilot screen, 24 h, human (AID 572);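 further: compound exposure lasted between 18 and 24 h rather than exactly 24 h; 100% = carrier-treated control wells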
- CONDITION_DETAILS: SK-BR-3 viability, CellTiter-Glo luminescence, at 10 µM, stronger effect = lower value
QUANTITY: viability (%)
Only the number, expressed in %, is required.

CCNC(=O)CC1C(=O)N(c2ccc(F)cc2)C(=O)N1CCC(C)C (stereo unspecified) | 103

Data request: # query: viability of entry CCCCOc1ccc(-c2nnn(CC(=O)Nc3ncc(CC(=O)OCC)s3)n2)cc1
Data returned: 122

Data request: Same for CCN(CC)S(=O)(=O)c1ccc(C(=O)Oc2ccc3c(c2)OCO3)cc1
Data returned: 101

Data request: Same for CC(C)OC(=O)CSc1nnc(Cc2ccccc2)n1Cc1ccco1
Data returned: 92.5

Data request: Same for Fc1ccccc1-c1nc(-c2ccccc2)no1
Data returned: 85.5

----------
- TEST: growth inhibitors of H69AR lung tumor, primary screen, human, duplicate replicates (AID 580);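 further: 100% = mean luminescence of untreated wells and 0% = no signal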
- CONDITION_DETAILS: H69AR lung tumor cells viability, ATP luminescence, 72 h; at 10 µM; stronger effect = lower value
QUANTITY: viability (%)
Only the number, expressed in %, is required.

Known results for compounds:
Cc1ccc(S(=O)(=O)N2CCCC2C(=O)OCc2nc3ccccc3s2)cc1 (centres undefined) | 99.2
O=C(CSc1nnc2ncccn12)N1CCCCCC1 | 107
CCN(C(=O)c1cc(Cl)ccc1OC)C1CCCCC1 | 83.8
CS(=O)(=O)c1ccc2nc(NC(=O)C3C4C=CC(C4)C3C(=O)O)sc2c1 (centres undefined) | 104
COc1ccc(OC)c(NC(=O)CSc2nc3ccccc3c(=O)n2CCNC(C)=O)c1 | 80.7
Cc1oc2c(CN3CCCC3)c(O)ccc2c(=O)c1-c1ccccc1 | 89
COc1cc(C)nc(NS(=O)(=O)c2ccc(C)cc2)n1 | 84.9
O=C(Nc1cccnc1)Nc1ccc2c(c1)OCO2 | 82.7

Data request: # query: viability of entry Cc1ccc(C(=O)CSc2nnc(-c3cccnc3)n2N)cc1
Data returned: 28.2

Data request: Same for O=S(=O)(NCc1cccnc1)c1cccc2nsnc12
Data returned: 92.3

Data request: Same for Cc1ccc(Cn2ncc3c(NCCCN4CCOCC4)ncnc32)cc1
Data returned: 102

Data request: Same for O=C(COC(=O)CCC(=O)c1cccs1)NCc1ccco1
Data returned: 79.8

Data request: Same for CCOc1ccc(CN2C(=O)c3ccccc3C2C(=O)NCc2cccnc2)cc1 (centres undefined)
Data returned: 98.8

Data request: Same for OC(CN1CCN(c2ccccn2)CC1)Cn1c2ccccc2c2ccccc21 (centres undefined)
Data returned: 82.1

----------
- TEST: growth suppression of yeast trafficking mutant, preliminary HTS, modulators of trafficking downstream of Golgi apparatus project, 1536-format plate, OD 615 nm (AID 637)
- CONDITION_DETAILS: yeast transport mutant growth, absorbance 615 nm, 18 h; stronger effect = higher value
Measured inhibition accompanies every entry in the list below.
Only the number, expressed in %, is required.

COc1ccc(C(C(C(=O)c2ccco2)N2CCOCC2)N2CCOCC2)cc1 (stereo unspecified) | -10.6
Cc1cc(C)c(NC(=O)C2CSCCS2)c(C)c1 (stereo unspecified) | -7.17
Cn1c2c(c(=O)n(C)c1=O)CN(CCCN1CCOCC1)CN2 | -5.27
CC(=O)Nc1ccccc1-c1nc2ccc(C(=O)N3CCN(c4ccccc4)CC3)cc2[nH]c1=O | 1.15
CC(C)Cn1c(CN2CCN(c3ccccc3F)CC2)nc2c1c(=O)[nH]c(=O)n2C | -0.66

Data request: # query: inhibition of entry CCOC(=O)CN1CC23C=CC(O2)C(C(=O)NC2CCCC2)C3C1=O (stereo unspecified)
Data returned: 4.33

Data request: Same for CC1=C(C(=O)NCc2ccccc2)C(c2ccccc2OCC(N)=O)NC(=O)N1 (stereo unspecified)
Data returned: 1.43

Data request: Same for O=C(NCc1ccco1)c1cnn2c(C(F)(F)F)cc(-c3ccco3)nc12
Data returned: 1.9

Data request: Same for CCOC(=O)c1c(N)sn(-c2ccccc2)c1=S
Data returned: 2.17

Data request: Same for O=C(O)CC1NC(=O)N(c2ccccc2)C1=O (stereo unspecified)
Data returned: 0

Data request: Same for CCOC(=O)CSc1nnc(-c2ccccc2OC)o1
Data returned: -6.51

Data request: Same for CCOC(=O)c1cc2cc(F)ccc2nc1C
Data returned: -5.9

----------
- TEST: HUVEC growth inhibition – cell-based, human, primary screen (AID 575);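 further: 100% = median of untreated cell wells with 0.1% DMSO on each plate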
- CONDITION_DETAILS: HUVEC proliferation, CellTiter-Glo luminescence, 72 h; at 10 µM; stronger effect = lower value
Values of viability strictly less than 90% map to 1 (yes), and values of at least 90% map to 0 (no).

// known answers, use as guide
CC(C)(C)c1cc(C(=S)N2CCN(CCO)CC2)cc(C(C)(C)C)c1O | 0 (no)
O=C(Oc1ccc(Cl)cc1N1C(=O)CCC1=O)c1ccco1 | 1 (yes)
Cc1nc(SCc2ccc(Br)cc2)[nH]c(=O)c1C | 1 (yes)
COC(=O)c1sc(N)c(C(=O)OC)c1CSc1nc2sc3c(c2c(=O)n1C)CCC3 | 1 (yes)
c1ccc(CNc2c3c(nc4ncnn24)CCCC3)nc1 | 0 (no)
COc1ccccc1NC(=O)CSc1nnc(CC(=O)Nc2ccccc2)n1C | 0 (no)

Data request: Quick check: does Cc1ccc(-c2nn(C)c(=O)c3ccccc23)cc1S(=O)(=O)N1CCOCC1 have viability under 90%?
Data returned: 1 (yes)

Data request: Same for COC(=O)c1oc2ccc(Br)cc2c1NC(=O)CN1CCN(C)CC1
Data returned: 0 (no)

Data request: Same for Nc1nc(-c2ccccc2Br)cs1
Data returned: 1 (yes)

Data request: Same for Cc1c(NC(=O)CSc2nnc3sc4ccccc4n23)c(=O)n(-c2ccccc2)n1C
Data returned: 0 (no)

Data request: Same for Nc1nc(N)nc(-c2ccccc2)n1
Data returned: 0 (no)

Data request: Same for CCOC(=O)c1ccc(N2C(=O)C3CC=CCC3C2=O)cc1 (centres undefined)
Data returned: 0 (no)

Data request: Same for c1ccc(Cn2nnc3c(N4CCC5(CC4)OCCO5)ncnc32)cc1
Data returned: 0 (no)

Data request: Same for CN(Cc1cccs1)c1ncnc2sccc12
Data returned: 1 (yes)

Data request: Same for CCOc1ccc(N(CC)C(=O)COc2cc(=O)n(C)c3ccccc23)cc1
Data returned: 0 (no)

Data request: Same for Cc1nc2cccc(C(=O)NC3CCCCC3)c2o1
Data returned: 0 (no)

Data request: Same for Cc1ccc(-c2noc(C3CCCN(C(=O)c4ccccc4)C3)n2)o1 (centres undefined)
Data returned: 0 (no)

Data request: Same for Cc1c(Br)c(C(F)(F)F)nn1CC(=O)NCCN1CCOCC1
Data returned: 0 (no)

Data request: Same for COCCn1nnnc1CN(CCCN1CCOCC1)Cc1cc2c(C)ccc(C)c2[nH]c1=O
Data returned: 0 (no)
